target: C5a anaphylatoxin chemotactic receptor 1 (Homo sapiens); assay: Ability to inhibit the binding of […] to polymorphonuclear leukocyte (PMNL) membrane receptor
Sequence (P21730 whole entry): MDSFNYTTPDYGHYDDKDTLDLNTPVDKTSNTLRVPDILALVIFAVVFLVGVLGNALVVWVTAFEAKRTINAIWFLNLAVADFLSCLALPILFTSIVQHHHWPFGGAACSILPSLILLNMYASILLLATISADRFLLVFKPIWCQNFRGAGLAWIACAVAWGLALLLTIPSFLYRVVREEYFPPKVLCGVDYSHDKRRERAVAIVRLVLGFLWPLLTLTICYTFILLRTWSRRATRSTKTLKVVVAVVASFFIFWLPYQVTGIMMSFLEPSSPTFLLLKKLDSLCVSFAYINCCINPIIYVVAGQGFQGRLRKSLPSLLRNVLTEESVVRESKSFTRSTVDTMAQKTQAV
Where a SMILES comes first, the peptide text is derived from it. [ ]: non-standard residue; d: D form. Cha = N[C@@H](CC1CCCCC1)C(=O)O; Nle = CCCC[C@H](N)C(=O)O
Quick reference: log10 of Ki of the listed items.
quantity: log10 of Ki (log10 of the value in µM)

molecule: CC(=O)N[C@@H](Cc1c[nH]cn1)C(=O)N[C@@H](CCCCN)C(=O)N[C@@H](CC(=O)O)C(=O)N[C@@H](Cc1ccccc1)C(=O)N[C@@H](Cc1ccccc1)C(=O)N[C@@H](Cc1ccccc1)C(=O)N[C@H](C)C(=O)N[C@@H](CCCN=C(N)N)C(=O)O
log10 of Ki: 2.88
//
molecule: CC(=O)N[C@@H](Cc1c[nH]cn1)C(=O)N[C@@H](CCCCN)C(=O)N[C@@H](CC(=O)O)C(=O)N[C@@H](CC1CCCCC1)C(=O)N[C@@H](CC1CCCCC1)C(=O)N[C@@H](CC1CCCCC1)C(=O)NCC(=O)N[C@@H](CCCN=C(N)N)C(=O)O (Ac-HKD[Cha][Cha][Cha]GR-OH)
log10 of Ki: 1.40
//
molecule: CC(=O)N[C@@H](Cc1c[nH]cn1)C(=O)N[C@@H](CCCCN)C(=O)N[C@@H](CC(=O)O)C(=O)N[C@@H](CC1CCCCC1)C(=O)N[C@@H](CC1CCCCC1)C(=O)N[C@H](C(=O)N[C@H](C)C(=O)N[C@@H](CCCN=C(N)N)C(=O)O)C(C)C
log10 of Ki: 0.20
//
molecule: CC(=O)N[C@@H](Cc1c[nH]cn1)C(=O)NC(CCCCN)C(=O)N[C@@H](CC(=O)O)C(=O)NC(CC1CCCCC1)C(=O)N[C@H](CC1CCCCC1)C(=O)N[C@@H](CC(C)C)C(=O)N[C@H](C)C(=O)N[C@@H](CCCN=C(N)N)C(=O)O (single isomer, unassigned)
log10 of Ki: 2.78
//
molecule: CCC[C@H](NC(=O)[C@H](CC1CCCCC1)NC(=O)[C@H](CC1CCCCC1)NC(=O)[C@H](CC(=O)O)NC(=O)[C@H](CCCCN)NC(=O)[C@H](Cc1c[nH]cn1)NC(C)=O)C(=O)N[C@H](C)C(=O)N[C@@H](CCCN=C(N)N)C(=O)O
log10 of Ki: 0.72
//
molecule: CC[C@H](C)[C@H](NC(=O)[C@H](CC1CCCCC1)NC(=O)[C@H](CC1CCCCC1)NC(=O)[C@H](CC(=O)O)NC(=O)[C@H](CCCCN)NC(=O)[C@H](Cc1c[nH]cn1)NC(C)=O)C(=O)N[C@H](C)C(=O)N[C@@H](CCCN=C(N)N)C(=O)O
log10 of Ki: 0.30
//
molecule: CC(=O)N[C@@H](Cc1c[nH]cn1)C(=O)N[C@@H](CCCCN)C(=O)N[C@@H](CC(=O)O)C(=O)N[C@@H](CC1CCCCC1)C(=O)N[C@@H](CC1CCCCC1)C(=O)N[C@@H](CC1CCCCC1)C(=O)N[C@H](C)C(=O)N[C@@H](CCCN=C(N)N)C(=O)O
log10 of Ki: 1.00
//
molecule: CC(=O)N[C@@H](Cc1c[nH]cn1)C(=O)N[C@@H](CCCCN)C(=O)N[C@@H](CC(=O)O)C(=O)N[C@@H](CC1CCCCC1)C(=O)N[C@@H](CC1CCCCC1)C(=O)N[C@@H](CC(C)C)C(=O)N[C@H](C)C(=O)N[C@@H](CCCN=C(N)N)C(=O)O
log10 of Ki: 0.46
//
molecule: CCCC[C@H](NC(=O)[C@H](CCCC)NC(=O)[C@H](CCCC)NC(=O)[C@H](CC(=O)O)NC(=O)[C@H](CCCCN)NC(=O)[C@H](Cc1c[nH]cn1)NC(C)=O)C(=O)NCC(=O)N[C@@H](CCCN=C(N)N)C(=O)O (Ac-HKD[Nle][Nle][Nle]GR-OH)
log10 of Ki: 2.32
